Where these numbers come from: ChEMBL document CHEMBL1153907

Target System: Kappa-type opioid receptor (Homo sapiens)
Sequence (P41145 whole entry): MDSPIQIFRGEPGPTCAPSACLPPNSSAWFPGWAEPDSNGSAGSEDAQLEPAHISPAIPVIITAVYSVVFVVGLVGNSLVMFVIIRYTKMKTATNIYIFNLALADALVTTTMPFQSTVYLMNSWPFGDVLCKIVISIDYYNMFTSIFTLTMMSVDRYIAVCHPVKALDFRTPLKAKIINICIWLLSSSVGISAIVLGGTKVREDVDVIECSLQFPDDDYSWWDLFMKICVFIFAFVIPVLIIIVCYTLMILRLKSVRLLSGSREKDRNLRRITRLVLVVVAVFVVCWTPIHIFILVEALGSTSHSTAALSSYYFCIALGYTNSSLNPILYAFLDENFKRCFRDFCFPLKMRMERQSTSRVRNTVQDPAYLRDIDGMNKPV
Experimental Protocol: Displacement of [3H]diprenorphine from human kappa opioid receptor expressed in CHO cells in presence of EGTA
Type: cell-based
pKi: −log10 of the molar value.
Property Name: pKi

>  <Line Notation>
COC(=O)[C@@H]1C[C@H](OC(C)=O)C(=O)[C@H]2[C@@]1(C)CC[C@H]1C(=O)O[C@H](c3nc(C)no3)C[C@]21C

>  <Reported Value>
< 6.00

$$$$

====

Target System: Mu-type opioid receptor (Rattus norvegicus, UniProt P33535)
Sequence (P33535 whole entry): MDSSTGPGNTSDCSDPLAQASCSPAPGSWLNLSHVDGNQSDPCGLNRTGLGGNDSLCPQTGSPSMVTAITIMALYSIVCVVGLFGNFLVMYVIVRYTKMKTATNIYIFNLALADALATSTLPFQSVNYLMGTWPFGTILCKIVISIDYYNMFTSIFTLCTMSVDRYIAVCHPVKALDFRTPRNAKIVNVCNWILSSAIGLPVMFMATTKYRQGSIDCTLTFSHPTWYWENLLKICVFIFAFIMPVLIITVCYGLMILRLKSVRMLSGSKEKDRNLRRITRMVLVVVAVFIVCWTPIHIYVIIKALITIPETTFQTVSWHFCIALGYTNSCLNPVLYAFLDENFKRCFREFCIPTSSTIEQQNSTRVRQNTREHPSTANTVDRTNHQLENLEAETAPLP
Reported Ki is given for each of the following compounds.

>  <Line Notation>
CCn1cc([C@@H]2C[C@]3(C)[C@H]4C(=O)[C@@H](OC(C)=O)C[C@@H](C(=O)OC)[C@]4(C)CC[C@H]3C(=O)O2)nn1

>  <Ki>
> 1000 nM

$$$$
>  <Line Notation>
COC(=O)[C@@H]1C[C@H](OC(C)=O)C(=O)[C@H]2[C@@]1(C)CC[C@H]1C(=O)O[C@H](c3cn(COC(=O)C(C)(C)C)nn3)C[C@]21C

>  <Ki>
> 1000 nM

$$$$
>  <Line Notation>
COC(=O)[C@@H]1C[C@H](OC(C)=O)C(=O)[C@H]2[C@@]1(C)CC[C@H]1C(=O)O[C@H](c3c[nH]nn3)C[C@]21C

>  <Ki>
> 1000 nM

$$$$
>  <Line Notation>
COC(=O)[C@@H]1C[C@H](OC(C)=O)C(=O)[C@@H]2[C@@]3(C)C[C@@H](c4c[nH]nn4)OC(=O)[C@H]3CC[C@]21C

>  <Ki>
> 1000 nM

$$$$
>  <Line Notation>
COC(=O)[C@@H]1C[C@H](OC(C)=O)C(=O)[C@H]2[C@@]1(C)CC[C@H]1C(=O)O[C@H](c3cn(C)nn3)C[C@]21C

>  <Ki>
> 1000 nM

$$$$
>  <Line Notation>
COC(=O)[C@@H]1C[C@H](OC(C)=O)C(=O)[C@H]2[C@@]1(C)CC[C@H]1C(=O)O[C@H](c3nc(C)no3)C[C@]21C

>  <Ki>
> 1000 nM

$$$$
>  <Line Notation>
COC(=O)[C@@H]1C[C@H](OC(C)=O)C(=O)[C@H]2[C@@]1(C)CC[C@H]1C(=O)O[C@H](c3cn(Cc4ccccc4)nn3)C[C@]21C

>  <Ki>
> 1000 nM

$$$$

====

Target System: Kappa-type opioid receptor (Homo sapiens)
Experimental Protocol: Agonist activity at human kappa opioid receptor expressed in CHO cells assessed as increase in […] [35S]GTPgammaS binding
Property Name: EC50

>  <Line Notation>
COC(=O)[C@@H]1C[C@H](OC(C)=O)C(=O)[C@H]2[C@@]1(C)CC[C@H]1C(=O)O[C@H](c3nc(C)no3)C[C@]21C

>  <Property Name>
EC50

>  <Reported Value>
> 1000 nM

$$$$
